species on record: Cavia porcellus; assay: Binding affinity ratio of kappa opioid receptor (guinea pig brain membranes) with respect to delta opioid receptor( rat brain membranes); format: cell membranes; conditions: Membrane
Quantity: Ratio

Smiles input: C=CCN1C[C@H](C)N([C@@H](c2ccc(C(=O)N(CC)CCCC)cc2)c2cccc(OC)c2)C[C@H]1C
Recorded measurement: > 66
--
Smiles input: C=CCN1C[C@H](C)N([C@@H](c2ccc(C(=O)N(C)C)cc2)c2cccc(OC)c2)C[C@H]1C
Recorded measurement: > 11
--
Smiles input: C=CCN1C[C@H](C)N([C@@H](c2ccc(C(=O)N(CCC)CCC)cc2)c2cccc(OC)c2)C[C@H]1C
Recorded measurement: > 65
--
Smiles input: C=CCN1C[C@H](C)N([C@H](c2ccc(C(=O)N3CCCC3)cc2)c2cccc(OC)c2)C[C@H]1C
Recorded measurement: > 552
--
Smiles input: C=CCN1C[C@H](C)N([C@H](c2ccc(C(=O)NCC)cc2)c2cccc(OC)c2)C[C@H]1C
Recorded measurement: 2.3
--
Smiles input: C=CCN1C[C@H](C)N([C@H](c2ccc(C(=O)N(CC)CCCC)cc2)c2cccc(OC)c2)C[C@H]1C
Recorded measurement: > 1520
--
Smiles input: C=CCN1C[C@H](C)N([C@H](c2ccc(C(=O)N(CCC)CCC)cc2)c2cccc(OC)c2)C[C@H]1C
Recorded measurement: > 763

In the following, a different compound is considered.
Q: Fill in: Ratio of C=CCN1C[C@H](C)N([C@H](c2ccc(C(N)=O)cc2)c2cccc(OC)c2)C[C@H]1C is ___
Ans: > 5.5
